Attribution: the supplement of paper PMC9112550

In this section we review reported shrunken log2 fold change values for a set of sequences.
tested on: Escherichia coli TOP10; experiment: shrunken log2 fold change of peptide-encoding DNA abundance (4.5 h post-induction vs induction); higher = less antimicrobial activity (less host growth inhibition); conditions: time post-induction: 4.5 h; library: site-saturation at positions 5, 18, 19, 20
readout-kind: shrunken log2 fold change

[[record]]
sequence_string = "RRIRHRPPRLPRPRPRPSMFPRP"
system_under_test = "Escherichia coli TOP10"
data_value = -0.163

[[record]]
sequence_string = "RRIRTRPPRLPRPRPRPEQLPRP"
system_under_test = "Escherichia coli TOP10"
data_value = 0.117

[[record]]
sequence_string = "RRIRCRPPRLPRPRPRPQMHPRP"
system_under_test = "Escherichia coli TOP10"
data_value = -0.27

[[record]]
sequence_string = "RRIRIRPPRLPRPRPRPPWNPRP"
system_under_test = "Escherichia coli TOP10"
data_value = -0.403

[[record]]
sequence_string = "RRIRDRPPRLPRPRPRPRMAPRP"
system_under_test = "Escherichia coli TOP10"
data_value = 0.465

[[record]]
sequence_string = "RRIRCRPPRLPRPRPRPMYVPRP"
system_under_test = "Escherichia coli TOP10"
data_value = -0.766

[[record]]
sequence_string = "RRIRYRPPRLPRPRPRPGMLPRP"
system_under_test = "Escherichia coli TOP10"
data_value = -0.139

[[record]]
sequence_string = "RRIRQRPPRLPRPRPRPNWDPRP"
system_under_test = "Escherichia coli TOP10"
data_value = 0.126

[[record]]
sequence_string = "RRIRKRPPRLPRPRPRPLYCPRP"
system_under_test = "Escherichia coli TOP10"
data_value = -0.237

[[record]]
sequence_string = "RRIRGRPPRLPRPRPRPYPRPRP"
system_under_test = "Escherichia coli TOP10"
data_value = 0.162

[[record]]
sequence_string = "RRIRRRPPRLPRPRPRPIVWPRP"
system_under_test = "Escherichia coli TOP10"
data_value = 0.0811

[[record]]
sequence_string = "RRIRHRPPRLPRPRPRPCSYPRP"
system_under_test = "Escherichia coli TOP10"
data_value = -0.0203

[[record]]
sequence_string = "RRIRTRPPRLPRPRPRPLHLPRP"
system_under_test = "Escherichia coli TOP10"
data_value = 0.053

[[record]]
sequence_string = "RRIRTRPPRLPRPRPRPCANPRP"
system_under_test = "Escherichia coli TOP10"
data_value = -0.148

[[record]]
sequence_string = "RRIRGRPPRLPRPRPRPYFAPRP"
system_under_test = "Escherichia coli TOP10"
data_value = 0.357

[[record]]
sequence_string = "RRIRCRPPRLPRPRPRPVHGPRP"
system_under_test = "Escherichia coli TOP10"
data_value = 0.267

[[record]]
sequence_string = "RRIRCRPPRLPRPRPRPLYNPRP"
system_under_test = "Escherichia coli TOP10"
data_value = -1.22

[[record]]
sequence_string = "RRIRARPPRLPRPRPRPERPPRP"
system_under_test = "Escherichia coli TOP10"
data_value = 0.556

[[record]]
sequence_string = "RRIRKRPPRLPRPRPRPHIGPRP"
system_under_test = "Escherichia coli TOP10"
data_value = -0.0664

[[record]]
sequence_string = "RRIRTRPPRLPRPRPRPSRIPRP"
system_under_test = "Escherichia coli TOP10"
data_value = -0.179

[[record]]
sequence_string = "RRIRARPPRLPRPRPRPNNSPRP"
system_under_test = "Escherichia coli TOP10"
data_value = -0.483

[[record]]
sequence_string = "RRIRTRPPRLPRPRPRPFKCPRP"
system_under_test = "Escherichia coli TOP10"
data_value = -0.18

[[record]]
sequence_string = "RRIRERPPRLPRPRPRPQHFPRP"
system_under_test = "Escherichia coli TOP10"
data_value = 0.131

[[record]]
sequence_string = "RRIRHRPPRLPRPRPRPHDKPRP"
system_under_test = "Escherichia coli TOP10"
data_value = -0.293

[[record]]
sequence_string = "RRIRVRPPRLPRPRPRPGTGPRP"
system_under_test = "Escherichia coli TOP10"
data_value = 0.148

[[record]]
sequence_string = "RRIRMRPPRLPRPRPRPEVHPRP"
system_under_test = "Escherichia coli TOP10"
data_value = -0.0544

[[record]]
sequence_string = "RRIRDRPPRLPRPRPRPRIIPRP"
system_under_test = "Escherichia coli TOP10"
data_value = -0.00686

[[record]]
sequence_string = "RRIRRRPPRLPRPRPRPHMHPRP"
system_under_test = "Escherichia coli TOP10"
data_value = -0.083

[[record]]
sequence_string = "RRIRIRPPRLPRPRPRPKTYPRP"
system_under_test = "Escherichia coli TOP10"
data_value = -0.879

[[record]]
sequence_string = "RRIRDRPPRLPRPRPRPALLPRP"
system_under_test = "Escherichia coli TOP10"
data_value = 1.02

[[record]]
sequence_string = "RRIRFRPPRLPRPRPRPVPWPRP"
system_under_test = "Escherichia coli TOP10"
data_value = 0.0558

[[record]]
sequence_string = "RRIRYRPPRLPRPRPRPQNQPRP"
system_under_test = "Escherichia coli TOP10"
data_value = -0.562


* * *

test system: Escherichia coli TOP10; assay: shrunken log2 fold change of peptide-encoding DNA abundance (4.5 h post-induction vs induction); higher = less antimicrobial activity (less host growth inhibition); details: time post-induction: 4.5 h; library: site-saturation at positions 5, 18, 19, 20;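 further: peptides expressed intracellularly from a pBAD plasmid library in pooled LB shake-flask culture, induced with 0.3% L-arabinose, DNA abundance read by NGS, three biological replicates, DESeq2 with apeglm shrinkage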
In this section we review reported shrunken log2 fold change values for a set of sequences.
readout-kind: shrunken log2 fold change

[[record]]
sequence_string = "RRIRDRPPRLPRPRPRPAHMPRP"
data_value = -0.125

[[record]]
sequence_string = "RRIRMRPPRLPRPRPRPCMPPRP"
data_value = -0.106

[[record]]
sequence_string = "RRIRDRPPRLPRPRPRPSQPPRP"
data_value = -0.0206

[[record]]
sequence_string = "RRIRPRPPRLPRPRPRPNKTPRP"
data_value = -0.0733

[[record]]
sequence_string = "RRIRLRPPRLPRPRPRPIEDPRP"
data_value = 0.0562

[[record]]
sequence_string = "RRIRSRPPRLPRPRPRPRGCPRP"
data_value = 0.383

[[record]]
sequence_string = "RRIRYRPPRLPRPRPRPLYFPRP"
data_value = -1.15

[[record]]
sequence_string = "RRIRARPPRLPRPRPRPTEHPRP"
data_value = 0.46

[[record]]
sequence_string = "RRIRSRPPRLPRPRPRPHGSPRP"
data_value = -0.0567

[[record]]
sequence_string = "RRIRWRPPRLPRPRPRPNKQPRP"
data_value = 0.103

[[record]]
sequence_string = "RRIRQRPPRLPRPRPRPRCTPRP"
data_value = -0.172

[[record]]
sequence_string = "RRIRTRPPRLPRPRPRPQQEPRP"
data_value = 0.0173

[[record]]
sequence_string = "RRIRKRPPRLPRPRPRPDGKPRP"
data_value = 0.0268

[[record]]
sequence_string = "RRIRVRPPRLPRPRPRPTKEPRP"
data_value = -0.0294

[[record]]
sequence_string = "RRIRQRPPRLPRPRPRPNMFPRP"
data_value = 0.0369

[[record]]
sequence_string = "RRIRQRPPRLPRPRPRPFDGPRP"
data_value = -0.901

[[record]]
sequence_string = "RRIRVRPPRLPRPRPRPQHIPRP"
data_value = -0.32

[[record]]
sequence_string = "RRIRQRPPRLPRPRPRPAHFPRP"
data_value = 0.464

[[record]]
sequence_string = "RRIRLRPPRLPRPRPRPFVFPRP"
data_value = -0.337

[[record]]
sequence_string = "RRIRVRPPRLPRPRPRPRNNPRP"
data_value = -0.425

[[record]]
sequence_string = "RRIRDRPPRLPRPRPRPHMMPRP"
data_value = 0.158

[[record]]
sequence_string = "RRIRPRPPRLPRPRPRPNNPPRP"
data_value = -0.415

[[record]]
sequence_string = "RRIRVRPPRLPRPRPRPMVSPRP"
data_value = -0.188

[[record]]
sequence_string = "RRIRMRPPRLPRPRPRPVHNPRP"
data_value = -0.0275

[[record]]
sequence_string = "RRIRVRPPRLPRPRPRPTHLPRP"
data_value = 0.37

[[record]]
sequence_string = "RRIRERPPRLPRPRPRPAGQPRP"
data_value = -0.195

[[record]]
sequence_string = "RRIRPRPPRLPRPRPRPCMTPRP"
data_value = -0.106

[[record]]
sequence_string = "RRIRDRPPRLPRPRPRPIEQPRP"
data_value = 0.0525

[[record]]
sequence_string = "RRIRCRPPRLPRPRPRPITCPRP"
data_value = -0.159

[[record]]
sequence_string = "RRIRMRPPRLPRPRPRPKMEPRP"
data_value = 1.45

[[record]]
sequence_string = "RRIRIRPPRLPRPRPRPCMSPRP"
data_value = -0.347

[[record]]
sequence_string = "RRIRMRPPRLPRPRPRPAAVPRP"
data_value = 1.44

